biological target: human full-length MKNK1 (Homo sapiens, UniProt Q9BUB5, T385D); construct: GST (N); test: MKNK1 kinase high ATP assay (TR-FRET); details: high ATP (2 mM final), 15 min preincubation with enzyme, GST-MKNK1 (T344D)
Sequence (Q9BUB5 1-424 isoform Q9BUB5-2 T344D): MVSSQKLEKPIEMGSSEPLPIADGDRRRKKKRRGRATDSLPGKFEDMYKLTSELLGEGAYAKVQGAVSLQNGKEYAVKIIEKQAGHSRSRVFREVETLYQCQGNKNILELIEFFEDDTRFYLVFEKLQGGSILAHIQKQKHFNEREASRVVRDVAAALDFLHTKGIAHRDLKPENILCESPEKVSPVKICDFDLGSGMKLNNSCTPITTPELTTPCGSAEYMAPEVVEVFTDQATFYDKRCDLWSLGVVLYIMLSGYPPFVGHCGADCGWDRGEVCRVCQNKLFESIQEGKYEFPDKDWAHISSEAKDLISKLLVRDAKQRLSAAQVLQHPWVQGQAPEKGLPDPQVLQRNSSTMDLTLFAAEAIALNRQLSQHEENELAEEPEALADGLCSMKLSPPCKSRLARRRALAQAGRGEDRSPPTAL
MEASURED QUANTITY: IC50 (nM)

See these solved cases before continuing.
• COc1cc2[nH]ncc2cc1Nc1ncnc2sc3c(c12)CCN(C(=O)C1CCN(C)CC1)C3 = 9
• COc1cc2[nH]ncc2cc1Nc1ncnc2sc3c(c12)CCN(Cc1ncon1)C3 = 17

(P) COc1cc2[nH]ncc2cc1Nc1ncnc2sc3c(c12)CCN(C(=O)NCCC(F)(F)F)C3
(Q) COc1cc2[nH]ncc2cc1Nc1ncnc2sc3c(c12)CCN(C(=O)c1ccn(C)n1)C3
Prompt line: Which of these two has the smaller recorded IC50: P or Q ? Please identify the chosen entry by its label.
Response line: P
(P: 1 nM, Q: 11 nM)

---

target: human full-length MKNK1 (Homo sapiens, UniProt Q9BUB5, T385D); construct: GST (N); assay: MKNK1 kinase high ATP assay (TR-FRET); conditions: high ATP (2 mM final), 15 min preincubation with enzyme, GST-MKNK1 (T344D)
pIC50: −log10 of the molar value.
MEASURED QUANTITY: pIC50

Example results:
- COc1nc2[nH]ncc2cc1Nc1ncnc2sc3c(c12)CCN(C(=O)C(C)C)C3: 7.38
- CS(=O)(=O)N1CCc2c(sc3ncnc(Nc4ccc5[nH]ncc5c4)c23)C1: 7.17
- O=C(N1CCOCC1)N1CCc2c(sc3ncnc(Nc4cc5cn[nH]c5cc4Br)c23)C1: 6.59
- COc1cc2[nH]ncc2cc1Nc1ncnc2sc3c(c12)CCN(CCCN1CCCC1=O)C3: 7.92
- COc1cc2[nH]ncc2cc1Nc1ncnc2sc3c(c12)CCN(CCCN1CCNC1=O)C3: 7.82

(P) COc1cc2[nH]ncc2cc1Nc1ncnc2sc3c(c12)CCNC3
(Q) COc1nc2[nH]ncc2cc1Nc1ncnc2sc3c(c12)CCN(S(C)(=O)=O)C3
Prompt line: // pick larger pIC50 from pair: P vs Q Choose, then provide that item's label.
Response line: P

---

molecular target: human full-length MKNK1 (Homo sapiens, UniProt Q9BUB5, T385D); construct: GST (N); assay: MKNK1 kinase high ATP assay (TR-FRET); settings: high ATP (2 mM final), 15 min preincubation with enzyme, GST-MKNK1 (T344D)
MEASURED QUANTITY: IC50 (nM)

- COc1cc2[nH]ncc2cc1Nc1ncnc2sc3c(c12)CCN(C(=O)C(C)C)C3: 4

(A) COc1cc2[nH]ncc2cc1Nc1ncnc2sc3c(c12)CCN(C(=O)N(C)C)C3
(B) CN(C)C(=O)N1CCc2c(sc3ncnc(Nc4cc5cn[nH]c5cn4)c23)C1
Prompt line: Between these two entries, A and B , state which has the higher IC50. Mark your answer with the label of the selected entry.
Response line: B
(B: 30 nM, A: 4 nM)

---

target: human full-length MKNK1 (Homo sapiens, UniProt Q9BUB5, T385D); construct: GST (N); assay: MKNK1 kinase high ATP assay (TR-FRET); settings: high ATP (2 mM final), 15 min preincubation with enzyme, GST-MKNK1 (T344D)
MEASURED QUANTITY: IC50 (nM)

- FC(F)(F)CN1CCc2c(sc3ncnc(Nc4cnc5[nH]ncc5c4)c23)C1: 79
- CN(C)C(=O)N1CCc2c(sc3ncnc(Nc4cnc5[nH]ncc5c4)c23)C1: 48

(I) CSc1cc2[nH]ncc2cc1Nc1ncnc2sc3c(c12)CCN(CC(F)(F)F)C3
(II) CN1CCC(C(=O)N2CCc3c(sc4ncnc(Nc5ccn6nccc6c5)c34)C2)CC1
(III) c1nc(Nc2cc3cn[nH]c3cn2)c2c3c(sc2n1)CN(CCN1CCOCC1)CC3
(IV) C[C@@H]1CN(C(=O)N2CCc3c(sc4ncnc(Nc5ccn6nccc6c5)c34)C2)C[C@H](C)O1
(V) COc1cc2[nH]ncc2cc1Nc1ncnc2sc3c(c12)CCN(Cc1cc(C(=O)N(C)C)no1)C3
Prompt line: # rank_down: sort by IC50, max first Return value: ordered labels per request.
Response line: II, III, IV, I, V
(II: 188 nM, III: 98 nM, IV: 61 nM, I: 15 nM, V: 9 nM)
